Molecular target: Human FXR full length (Homo sapiens)
Construct: Human FXR full length and RXR full length was obtained from Ronald Evans' laboratory; expressed in transfected cells; host or cells: CV-1 cells
Sequence (Q96RI1 1-476 isoform Q96RI1-1): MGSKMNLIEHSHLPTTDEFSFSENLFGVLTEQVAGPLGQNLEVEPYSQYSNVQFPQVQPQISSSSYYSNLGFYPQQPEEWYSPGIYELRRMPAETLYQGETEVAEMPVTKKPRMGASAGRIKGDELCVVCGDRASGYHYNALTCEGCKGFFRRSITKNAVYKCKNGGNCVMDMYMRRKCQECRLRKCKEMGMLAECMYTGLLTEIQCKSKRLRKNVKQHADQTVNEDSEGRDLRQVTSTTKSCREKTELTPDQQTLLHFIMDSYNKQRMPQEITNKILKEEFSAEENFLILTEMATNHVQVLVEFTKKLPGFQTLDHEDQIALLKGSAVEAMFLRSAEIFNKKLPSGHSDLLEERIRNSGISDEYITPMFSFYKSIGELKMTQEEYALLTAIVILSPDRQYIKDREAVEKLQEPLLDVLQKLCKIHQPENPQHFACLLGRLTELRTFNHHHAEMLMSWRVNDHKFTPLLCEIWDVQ
Sequence (P19793 1-462 partner): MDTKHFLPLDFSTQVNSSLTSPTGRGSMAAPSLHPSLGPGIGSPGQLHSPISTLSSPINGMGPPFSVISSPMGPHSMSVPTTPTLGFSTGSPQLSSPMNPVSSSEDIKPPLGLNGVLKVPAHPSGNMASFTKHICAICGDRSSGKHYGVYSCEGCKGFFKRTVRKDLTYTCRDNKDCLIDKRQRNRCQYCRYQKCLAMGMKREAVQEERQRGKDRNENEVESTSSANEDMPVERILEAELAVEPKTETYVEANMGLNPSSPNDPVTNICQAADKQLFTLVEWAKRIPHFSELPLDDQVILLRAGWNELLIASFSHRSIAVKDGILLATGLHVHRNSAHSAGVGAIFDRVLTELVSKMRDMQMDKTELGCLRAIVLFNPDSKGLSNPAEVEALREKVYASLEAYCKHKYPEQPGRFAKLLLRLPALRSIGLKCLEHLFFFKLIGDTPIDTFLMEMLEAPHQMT
Assay: FXR activity screen, luciferase reporter in transfected CV-1 cells
Format: cell-based
Settings: first round; CV-1 cells, 24 hours; read-out: 1st RND EC50
pEC50: −log10 of the molar value.
Recorded Endpoint: pEC50

Below, 3 compounds whose answers are already recorded.
COC(=O)/C=C/c1cccc(N(Cc2ccc(-c3ccc4c(cnn4C)c3)cc2)C(=O)[C@H]2C[C@H]3CC[C@@H]2C3)c1 ... 6.12
[2H]C(c1ccc(-c2ccc3c(cnn3C)c2)cc1)N(C(=O)[C@@H]1C[C@@H]2CC[C@H]1C2)c1cccc(/C=C/C(=O)OC)c1 (some centres unmarked) ... 6.43
COC(=O)/C=C/c1cccc(N(Cc2ccc(-c3ccc(N(C)C)cc3)cc2Cl)C(=O)c2ccccc2)c1 ... 6.03

I. COC(=O)/C=C/c1cccc(N(Cc2cccc3cc4cnn(C)c4c(F)c23)C(=O)C2C[C@H]3CC[C@@H]2C3)c1 (some centres unmarked)
II. COC(=O)/C=C/c1cccc(N(Cc2cccc3ccc(N(C)C)cc23)C(=O)C2CCCCC2)c1
Request: Of I and II , whose reported pEC50 is the larger number? Reply with the label of the item you choose.
Response: II
(II: 7.16, I: 6.03)

a. COC(=O)/C=C/c1cncc(N(Cc2cccc3cc4cnn(C)c4c(F)c23)C(=O)C2CCCCC2)c1
b. COC(=O)/C=C/c1cncc(N(Cc2ccc(-c3ccc(N(C)C)cc3)cc2)C(=O)c2ccccc2)c1
Request: Could you tell me which of a and b has the lower pEC50 reading? Kindly give the label for the entry you pick.
Response: b
(b: 5.07, a: 5.70)

// provenance: patent US20190084939A1
